# targetOrSystem: Protein Mdm4 (Homo sapiens) + E3 ubiquitin-protein ligase Mdm2 (Homo sapiens) (UniProt O15151+Q00987)
# Sequence (O15151 whole entry, looked up): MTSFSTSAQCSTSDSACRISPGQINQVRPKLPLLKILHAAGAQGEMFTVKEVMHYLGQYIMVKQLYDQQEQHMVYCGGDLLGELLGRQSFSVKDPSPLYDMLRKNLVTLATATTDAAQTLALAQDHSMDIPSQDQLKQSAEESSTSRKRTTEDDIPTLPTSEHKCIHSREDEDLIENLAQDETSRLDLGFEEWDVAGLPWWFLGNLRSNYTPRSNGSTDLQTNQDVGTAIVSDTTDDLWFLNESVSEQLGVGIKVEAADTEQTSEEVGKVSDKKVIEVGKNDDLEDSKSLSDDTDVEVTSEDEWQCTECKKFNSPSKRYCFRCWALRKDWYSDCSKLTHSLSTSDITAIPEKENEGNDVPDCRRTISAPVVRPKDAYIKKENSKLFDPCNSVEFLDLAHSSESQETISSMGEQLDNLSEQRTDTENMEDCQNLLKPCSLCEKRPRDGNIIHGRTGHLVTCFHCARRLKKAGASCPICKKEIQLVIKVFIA
# Sequence (Q00987 whole entry, looked up): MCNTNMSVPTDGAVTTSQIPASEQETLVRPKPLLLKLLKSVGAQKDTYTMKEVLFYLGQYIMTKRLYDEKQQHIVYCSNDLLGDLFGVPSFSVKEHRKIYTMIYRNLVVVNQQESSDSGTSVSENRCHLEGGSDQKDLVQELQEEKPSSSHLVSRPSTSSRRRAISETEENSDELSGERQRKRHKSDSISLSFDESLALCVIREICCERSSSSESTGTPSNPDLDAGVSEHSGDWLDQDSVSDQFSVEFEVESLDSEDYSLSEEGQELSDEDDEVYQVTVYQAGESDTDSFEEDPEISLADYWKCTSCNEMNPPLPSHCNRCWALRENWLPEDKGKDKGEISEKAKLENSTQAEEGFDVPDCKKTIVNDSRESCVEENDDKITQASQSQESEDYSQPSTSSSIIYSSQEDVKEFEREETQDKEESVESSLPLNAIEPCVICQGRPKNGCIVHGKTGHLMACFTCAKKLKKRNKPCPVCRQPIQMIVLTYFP
# measurementNotes: Mdm2-MdmX complex disruptors, retested hits, confirmation, luminescence, single concentration (AID 489028)
# studyConditions: Mdm2-MdmX binding, luminescent assay; at 8 µM; stronger effect = higher value
About 5,600 (56%) of roughly 10,000 compounds were called active. The set was probably picked from earlier hits. These entries were drawn from the full list.
# Lookup of reported inhibition keyed by entry
Express your answer in %, writing the number without its unit.

Look up inhibition: Cc1cc(=O)oc2cc(OCC3CC(c4ccccc4Cl)=NO3)ccc12 (stereo not given) 47.2

Look up inhibition: "Nc1cccc(-c2cc(-c3ccccc3)nc(-c3cccc(N)c3)n2)c1" 9.85

Look up inhibition: CC[C@]1(O)CC2CN(CCc3c([nH]c4ccccc34)[C@@](C(=O)OC)(c3cc4c(cc3OC)N(C=O)[C@H]3[C@@](O)(C(=O)OC)[C@H](OC(C)=O)[C@]5(CC)C=CCN6CC[C@]43[C@@H]65)C2)C1 (stereo not given in full) 58.4

Look up inhibition: "O=C(C[C@H]1C/C=C\C[C@@H](NC(=O)OCC2c3ccccc3-c3ccccc32)C(=O)O[C@@H](c2ccccc2)CNC1=O)N[C@H](CO)Cc1ccccc1" 28.4

Look up inhibition: COc1ccc(C(CCN(Cc2ccc(OC)c(OC)c2)C(=O)CCl)c2ccccc2)cc1 (stereo not given) 73.3

###

# targetOrSystem: Protein Mdm4 (Homo sapiens) + E3 ubiquitin-protein ligase Mdm2 (Homo sapiens) (UniProt O15151+Q00987)
# measurementNotes: Mdm2-MdmX complex disruptors, retested hits, confirmation, luminescence, single concentration (AID 489028)
# studyConditions: Mdm2-MdmX binding, luminescent assay; at 8 µM; stronger effect = higher value
The whole screen tested about 10,000 compounds, of which about 5,600 (56%) were called active. The set was probably picked from earlier hits. These entries were drawn from the full list.
propertyName: inhibition (%)
Express your answer in %, writing the number without its unit.

O=c1oc2ccccc2cc1-c1cn(-c2ccccc2)c(=S)[nH]1    96.2

Look up inhibition: "CCOC(=O)c1c(-c2ccc(C)cc2C)csc1NC(=O)CSc1nnnn1C" 51

###

# targetOrSystem: Protein Mdm4 (Homo sapiens) + E3 ubiquitin-protein ligase Mdm2 (Homo sapiens) (UniProt O15151+Q00987)
# measurementNotes: Mdm2-MdmX complex disruptors, retested hits, confirmation, luminescence, single concentration (AID 489028)
# studyConditions: Mdm2-MdmX binding, luminescent assay; at 8 µM; stronger effect = higher value
The campaign covered roughly 10,000 compounds. About 5,600 (56%) were called active. So high a share suggests a set chosen from earlier hits. A selection follows.
Please mark true (1) if the recorded inhibition is equal to or greater than 30%, and false (0) if it falls below.

Below, 5 molecules whose answers are already recorded.
COc1cc([N+](=O)[O-])ccc1NC(=O)COC(=O)CCOc1ccc(C)cc1    false (0)
O=C(/C=C/c1ccc(Cl)cc1)Nc1ccc(Br)cn1    false (0)
Cc1ccc(-n2[nH]c(C)c(/C=N/NC(=O)c3cccc([N+](=O)[O-])c3)c2=O)cc1C    true (1)
COc1cccc2sc(N(CCCN(C)C)C(=O)C(c3ccccc3)c3ccccc3)nc12    true (1)
CCOC(=O)c1ccc(NC(=O)c2nc[nH]c2C(=O)N[C@@H](CCCCNC(=O)OC(C)(C)C)C(=O)OC(C)(C)C)cc1    false (0)

Has "CCCC(=O)Nc1ccc(C(=O)N/N=C/c2ccc[nH]2)cc1" a recorded inhibition greater than or equal to 30%? false (0)

Has "Cc1nc(N2CCN(c3ccccn3)CC2)c2c(C)c(C(=O)Nc3ccc(F)c(Cl)c3)sc2n1" a recorded inhibition greater than or equal to 30%? true (1)

Has CCN(CC)CCC(c1cc(OC)c(OC)c(OC)c1)c1c(OC)cc(OC)c2c(-c3ccccc3)cc(=O)oc12 (stereo unspecified) a recorded inhibition greater than or equal to 30%? false (0)

Has "CCN(CC)c1ccc(/C=N/NC(=O)c2cnccn2)c(O)c1" a recorded inhibition greater than or equal to 30%? true (1)

Has "CN1CCN(CCCNC(=O)c2ccc(/C=C3\Oc4ccccc4N(Cc4ccc(Cl)cc4)C3=O)cc2)CC1" a recorded inhibition greater than or equal to 30%? true (1)

Has "COC(=O)CCNc1ccc2c(c1)OCCO2" a recorded inhibition greater than or equal to 30%? true (1)

Has "O=C(NC(Nc1nc2ccc([N+](=O)[O-])cc2s1)(C(F)(F)F)C(F)(F)F)c1ccccc1" a recorded inhibition greater than or equal to 30%? true (1)

Has "CCSc1nsc(NC(=O)Nc2cccc(C(C)=O)c2)n1" a recorded inhibition greater than or equal to 30%? true (1)

Has COc1ccc(CCn2c(=N)c(C(=O)NCC3CCCO3)cc3c(=O)n4cccc(C)c4nc32)cc1OC (stereo unspecified) a recorded inhibition greater than or equal to 30%? true (1)

Has "Clc1cccc(Cl)c1OCCOCCNCc1ccccc1" a recorded inhibition greater than or equal to 30%? true (1)

Recorded values, source PubChem BioAssay AID489028.
